Parameter: CC50. Scope: all listed entries.
- System: MDA-MB-231
- method.description: Growth inhibition of human MDA-MB-231 cells
- Type: functional
- reported.conditions: read-out: LC50 (the source's name)

compound.structure.string | endpoint | endpoint.result
CC(C)C[C@H](NC(=O)CCn1ccc2ccc(Br)cc2c1=O)B(O)O | CC50 | > 100 µM
CC(C)C[C@H](NC(=O)Cn1ccc2ccc(Br)cc2c1=O)B(O)O | CC50 | > 100 µM
CC(C)C[C@H](NC(=O)CCn1ccc2ccccc2c1=O)B(O)O | CC50 | > 100 µM

Query compound follows.
Exercise: Entry CC(C)C[C@H](NC(=O)CCn1ccc2ncccc2c1=O)B(O)O : reported CC50 = ?
Key: > 100 µM

###

- Tested on: KM12
- method.description: Growth inhibition of human KM12 cells
- Format: functional
Parameter: LC50. Scope: all listed entries.

Here are 3 compounds together with their reported answers.
compound.structure.string | LC50
CC(C)C[C@H](NC(=O)Cn1ccc2ccc(Br)cc2c1=O)B(O)O | > 100 µM
CC(C)C[C@H](NC(=O)CCn1ccc2ccccc2c1=O)B(O)O | > 100 µM
CC(C)C[C@H](NC(=O)CCn1ccc2ccc(Br)cc2c1=O)B(O)O | > 100 µM

Query compound follows.
Exercise: Entry CC(C)C[C@H](NC(=O)CCn1ccc2ncccc2c1=O)B(O)O : reported LC50 = ?
Key: > 100 µM

###

Parameter: GI50. Scope: all listed entries.
- method.description: Growth inhibition of human OVCAR5 cells
- Type: functional
- reported.conditions: OVCAR-5
Just the number please, in µM, no unit attached.

Exercise: Entry CC(C)C[C@H](NC(=O)[C@H](Cc1ccccc1)NC(=O)c1cnccn1)B(O)O : reported GI50 = ?
Key: 0.00155

Exercise: Entry CC(C)C[C@H](NC(=O)CCn1ccc2ccccc2c1=O)B(O)O : reported GI50 = ?
Key: 18.8

Exercise: Entry CC(C)C[C@H](NC(=O)CCn1ccc2ncccc2c1=O)B(O)O : reported GI50 = ?
Key: 17.1

Exercise: Entry CC(C)C[C@H](NC(=O)CCn1ccc2ccc(Br)cc2c1=O)B(O)O : reported GI50 = ?
Key: 3.15

###

- Test system: HT-29
- method.description: Growth inhibition of human HT-29 cells
- Format: functional
Cut-off 700 nM on GI50: below means 1 (yes), at or above means 0 (no).

compound | measurement.target | class.label
CC(C)C[C@H](NC(=O)Cn1ccc2ccc(Br)cc2c1=O)B(O)O | HT-29 | 0 (no)
CC(C)C[C@H](NC(=O)CCn1ccc2ncccc2c1=O)B(O)O | HT-29 | 0 (no)
CC(C)C[C@H](NC(=O)CCn1ccc2ccccc2c1=O)B(O)O | HT-29 | 0 (no)
CC(C)C[C@H](NC(=O)CCn1ccc2ccc(Br)cc2c1=O)B(O)O | HT-29 | 1 (yes)

Exercise: Confirm or reject: GI50 of CC(C)C[C@H](NC(=O)[C@H](Cc1ccccc1)NC(=O)c1cnccn1)B(O)O [BORTEZOMIB] lies strictly below 700 nM
Key: 1 (yes)

###

- System: 786-0
- method.description: Growth inhibition of human 786-0 cells
- Format: functional
Parameter: log10(GI50). Scope: all listed entries.
// do not treat as linear: log10 of GI50, unit µM

Here are 3 molecules together with their reported answers.
molecule | endpoint.result
CC(C)C[C@H](NC(=O)Cn1ccc2ccc(Br)cc2c1=O)B(O)O | 0.61
CC(C)C[C@H](NC(=O)CCn1ccc2ncccc2c1=O)B(O)O | 0.90
CC(C)C[C@H](NC(=O)[C@H](Cc1ccccc1)NC(=O)c1cnccn1)B(O)O [BORTEZOMIB] | -2.84

Exercise: Entry CC(C)C[C@H](NC(=O)CCn1ccc2ccc(Br)cc2c1=O)B(O)O : reported log10(GI50) = ?
Key: -0.09

Exercise: Entry CC(C)C[C@H](NC(=O)CCn1ccc2ccccc2c1=O)B(O)O : reported log10(GI50) = ?
Key: 0.68

###

- method.description: Growth inhibition of human LOXIMVI cells
- Assay type: functional
- reported.conditions: LOX IMVI
Parameter: log10 of GI50. Scope: all listed entries.
// do not treat as linear: log10 of GI50, unit nM

Exercise: Entry CC(C)C[C@H](NC(=O)[C@H](Cc1ccccc1)NC(=O)c1cnccn1)B(O)O : reported log10 of GI50 = ?
Key: -0.11

Exercise: Entry CC(C)C[C@H](NC(=O)Cn1ccc2ccc(Br)cc2c1=O)B(O)O : reported log10 of GI50 = ?
Key: 2.63

Exercise: Entry CC(C)C[C@H](NC(=O)CCn1ccc2ccccc2c1=O)B(O)O : reported log10 of GI50 = ?
Key: 3.32

Exercise: Entry CC(C)C[C@H](NC(=O)CCn1ccc2ncccc2c1=O)B(O)O : reported log10 of GI50 = ?
Key: 3.80

Exercise: Entry CC(C)C[C@H](NC(=O)CCn1ccc2ccc(Br)cc2c1=O)B(O)O : reported log10 of GI50 = ?
Key: 2.34

###

Parameter: GI50. Scope: all listed entries.
- Test system: COLO 205
- method.description: Growth inhibition of human COLO205 cells
- Format: functional
Remember to follow the number with its unit.

Here are 2 molecules together with their reported answers.
compound.structure.string | endpoint | endpoint.result
CC(C)C[C@H](NC(=O)CCn1ccc2ccc(Br)cc2c1=O)B(O)O | GI50 | 850 nM
CC(C)C[C@H](NC(=O)Cn1ccc2ccc(Br)cc2c1=O)B(O)O | GI50 | 2830 nM

Exercise: Entry CC(C)C[C@H](NC(=O)[C@H](Cc1ccccc1)NC(=O)c1cnccn1)B(O)O : reported GI50 = ?
Key: 1.23 nM

Exercise: Entry CC(C)C[C@H](NC(=O)CCn1ccc2ncccc2c1=O)B(O)O : reported GI50 = ?
Key: 10000 nM

Exercise: Entry CC(C)C[C@H](NC(=O)CCn1ccc2ccccc2c1=O)B(O)O : reported GI50 = ?
Key: 5060 nM

###

- System: CCRF-CEM
- method.description: Growth inhibition of human CCRF-CEM cells
- Format: functional
endpoint: TGI

Here are 3 compounds together with their reported answers.
compound.structure.string | measurement.target | TGI
CC(C)C[C@H](NC(=O)CCn1ccc2ccccc2c1=O)B(O)O | CCRF-CEM | 25.4 µM
CC(C)C[C@H](NC(=O)CCn1ccc2ccc(Br)cc2c1=O)B(O)O | CCRF-CEM | > 100 µM
CC(C)C[C@H](NC(=O)CCn1ccc2ncccc2c1=O)B(O)O | CCRF-CEM | > 100 µM

Exercise: Entry CC(C)C[C@H](NC(=O)Cn1ccc2ccc(Br)cc2c1=O)B(O)O : reported TGI = ?
Key: > 100 µM

###

- method.description: Growth inhibition of human MOLT4 cells
- Format: functional
- reported.conditions: MOLT-4
Parameter: log10 of GI50. Scope: all listed entries.
// do not treat as linear: log10 of GI50, unit nM

Here are 4 compounds together with their reported answers.
compound.structure.string | endpoint.result
CC(C)C[C@H](NC(=O)CCn1ccc2ncccc2c1=O)B(O)O | 3.52
CC(C)C[C@H](NC(=O)[C@H](Cc1ccccc1)NC(=O)c1cnccn1)B(O)O | -0.29
CC(C)C[C@H](NC(=O)CCn1ccc2ccc(Br)cc2c1=O)B(O)O | 2.49
CC(C)C[C@H](NC(=O)CCn1ccc2ccccc2c1=O)B(O)O | 3.11

Query compound follows.
Exercise: Entry CC(C)C[C@H](NC(=O)Cn1ccc2ccc(Br)cc2c1=O)B(O)O : reported log10 of GI50 = ?
Key: 2.48

###

- method.description: Growth inhibition of human OVCAR3 cells
- Type: functional
- reported.conditions: OVCAR-3
endpoint: LC50 (concentration killing 50% of cells) (µM)
Just the number please, in µM, no unit attached.

compound.structure.string | endpoint.result
CC(C)C[C@H](NC(=O)CCn1ccc2ccc(Br)cc2c1=O)B(O)O | 10.6

Exercise: Entry CC(C)C[C@H](NC(=O)CCn1ccc2ccccc2c1=O)B(O)O : reported LC50 (concentration killing 50% of cells) = ?
Key: 31.7

###

- measurement.target: Chymotrypsinogen A (Bos taurus, UniProt P00766)
- method.description: Inhibition of bovine pancreatic alpha-chymotrypsin using Suc-Leu-Leu-Val-Tyr-AMC as substrate by fluorescence assay
- reported.conditions: read-out: Ki
endpoint: Ki (µM)
Just the number please, in µM, no unit attached.

Exercise: Entry CC(C)C[C@H](NC(=O)CCn1ccc2ccc(Br)cc2c1=O)B(O)O : reported Ki = ?
Key: 23.7

Exercise: Entry CC(C)C[C@H](NC(=O)Cn1ccc2ccccc2c1=O)B(O)O : reported Ki = ?
Key: 9.11

Exercise: Entry CC(C)C[C@H](NC(=O)Cn1ccc2ccc(Br)cc2c1=O)B(O)O : reported Ki = ?
Key: 0.29

Exercise: Entry CC(C)C[C@H](NC(=O)[C@H](Cc1ccccc1)NC(=O)c1cnccn1)B(O)O : reported Ki = ?
Key: 2.4
